Overview of recorded inhibition at 200 µg/mL for various compounds
- Study target: purified recombinant human LDHA protein (Homo sapiens, UniProt P00338)
- Assay summary: Lactate dehydrogenase A (LDHA) inhibitory assay
- Type: biochemical
- Reported conditions: at 0.2 mg/mL; read-out: LDHA mean % inhibition ± SD
- Experimental: The LDHA inhibitory effectiveness was investigated by measuring the amounts of consumed NADH [73]. […] The fluorescence of NADH, which has an excitation wavelength of 340 nm and an emission wavelength of 460 nm, was detected using a spectrofluorometer. […] The LDHA inhibitory efficiency was expressed as an inhibition percentage, which was determined via a comparison with the negative control experiments.
Report as a plain number; the unit % is understood.

// below: answered compounds
>  <Structure>
O=c1c2cc(Cl)ccc2nc(SCc2ccccc2F)n1-c1cccc(C(F)(F)F)c1

>  <Outcome measure>
inhibition at 200 µg/mL

>  <Meas value>
38.9

$$$$
>  <Structure>
COc1cc2nc(SCc3ccc(Cl)cc3)n(-c3ccc([N+](=O)[O-])cc3)c(=O)c2cc1OC

>  <Outcome measure>
inhibition at 200 µg/mL

>  <Meas value>
21.8

$$$$
>  <Structure>
O=c1c2cc(Br)ccc2[nH]c(=S)n1-c1ccc(C(F)(F)F)cc1

>  <Outcome measure>
inhibition at 200 µg/mL

>  <Meas value>
36

$$$$
>  <Structure>
COc1ccc(Br)c(CSc2nc3ccc(Cl)cc3c(=O)n2-c2ccc([N+](=O)[O-])cc2)c1

>  <Outcome measure>
inhibition at 200 µg/mL

>  <Meas value>
51

$$$$

Kindly note the recorded inhibition at 200 µg/mL for `COc1cc2nc(SCc3cccc([N+](=O)[O-])c3)n(-c3cccc(C(F)(F)F)c3)c(=O)c2cc1OC` , which is 14.3

Given item `O=c1c2cc(Cl)ccc2[nH]c(=S)n1-c1ccc(C(F)(F)F)cc1` , the value recorded as its inhibition at 200 µg/mL is 53.5

Entry under test: `COc1cc2[nH]c(=S)n(-c3cccc(C(F)(F)F)c3)c(=O)c2cc1OC` . Its inhibition at 200 µg/mL was 30.8
